# Tested on: OVCAR-4 ovarian
# PROTOCOL_NOTES: NCI-60 one-dose screen, 48 h (100 = growth as untreated, 0 = no growth, -100 = all killed)
# REPORTED_CONDITIONS: 10 µM unless noted
This is part of a sample that, as a whole, favours compounds with a hit. Of some 83,000 tested, about 20% had one in any assay.
Each entry below carries its recorded growth.
API: value field is a number in %; no unit string.

State, in one line, measured growth of COc1cccc(C(=O)Nc2cccc(C#Cc3cccc4[nH]nc(N)c34)c2)c1
67.8

----------
# Tested on: HOP-92 NSCLC
# PROTOCOL_NOTES: NCI-60 one-dose screen, 48 h (100 = growth as untreated, 0 = no growth, -100 = all killed)
# REPORTED_CONDITIONS: 10 µM
Compounds without any hit were thinned out: in the full panel of roughly 83,000, 20% have a hit.
Hi! Just check whether growth is below 60%. Below gives 1 (yes), equal or above gives 0 (no).

Before answering, review these 6 worked examples.
[
  {
    "COMPOUND": "O=S(=O)(NCCNc1nccc(-n2cnc3ccccc32)n1)c1ccc(C(F)(F)F)cc1",
    "CLASS_LABEL": "1 (yes)"
  },
  {
    "COMPOUND": "C[C@@H](Nc1ncnc2ccc(-c3cnc(Cl)c(NS(C)(=O)=O)c3)cc12)c1ccccc1",
    "CLASS_LABEL": "1 (yes)"
  },
  {
    "COMPOUND": "COc1cc(OC)c(/C=C/S(=O)(=O)Cc2ccc(OC)c(NCC(=O)NO)c2)c(OC)c1",
    "CLASS_LABEL": "1 (yes)"
  },
  {
    "COMPOUND": "CC(=O)c1ccc(Nc2nc(SCC(C)C)nc(-c3ccc(F)cc3)c2C#N)cc1",
    "CLASS_LABEL": "0 (no)"
  },
  {
    "COMPOUND": "O=C(CCC(=O)N1CCOCC1)OCCCCCCSc1ccc([N+](=O)[O-])c2nonc12",
    "CLASS_LABEL": "1 (yes)"
  },
  {
    "COMPOUND": "NS(=O)(=O)c1ccc(Nc2nc(SCc3ccccc3)nc3ccccc23)cc1",
    "CLASS_LABEL": "1 (yes)"
  }
]

For this compound, is growth lower than 60%? N#Cc1c(-c2cccs2)cc(-c2cnccn2)nc1SCC(=O)Nc1ccc(Br)cc1
0 (no)

For this compound, is growth lower than 60%? C=C(C)[C@@H]1CC[C@]2(COC)CC[C@]3(C)[C@H](CC[C@@H]4[C@@]5(C)CCCNC(C)(C)[C@@H]5CC[C@]43C)[C@@H]12
0 (no)

These measurements were taken from PubChem BioAssay (NCI).
